Data provenance is PubChem BioAssay (NCI).

Test system: NCI-H23 lung
Test: NCI-60 one-dose screen, 48 h
Settings: 10 µM unless noted
About 83,000 compounds went through this panel and 20% of them were active in at least one assay; those are over-represented in the sample as a whole. Calls of active or inactive are those of the source. The calls were made as follows: active = growth percent below 10; inactive = the rest.
Outcomes: active, inactive

molecule	assigned_label
OCCNC(=S)Nc1ccc(-c2nc(N3C[C@H]4CC[C@@H](C3)O4)c3cccn3n2)cc1	inactive
COc1ccc(-c2cc3c(oc2=O)-c2ccccc2OC3OC(C)=O)cc1 (centres undefined)	inactive
CCS(=O)(=O)N1CCN(c2ccc(Nc3ncc(C(N)=O)c(NC4CC4)n3)cc2)CC1	inactive
NC1(C(=O)N[C@@H](CCO)c2ccc(Cl)cc2)CCN(c2ncnc3[nH]ccc23)CC1	inactive
CN(C[C@@H]1COCCO1)S(=O)(=O)Nc1ccc2ccc3ncc(-c4cnn(C)c4)cc3c(=O)c2c1	inactive
COc1c(C(NC(=O)c2ccccc2)c2sccc2C)cc(Cl)c2cccnc12 (centres undefined)	inactive
C=CC(=O)N1CCC[C@H](n2c(=O)n(-c3ccc(Oc4ccccc4)cc3)c3c(N)ncnc32)C1	inactive
CCCCCC(=O)OCc1ccc(Cl)c(Cl)c1	inactive
Cc1nc2ccc(-n3ncc(C(=O)c4cc5ccccc5[nH]4)c3N)cc2[nH]1	inactive
C=CCN(/C=C1/C(=O)O[C@H](COC)[C@@]2(C)C1=C(O)C(=O)C1=C2[C@H](OC(C)=O)C[C@]2(C)C(=O)CC[C@@H]12)CC=C	inactive
COc1c(OCCCN2CCOCC2)ccc2c3n(c(=NC(=O)c4cnc(N)nc4)nc12)CCN3	inactive
O=C1NC(=O)/C(=C/c2ccc3nccc(-c4ccncc4)c3c2)S1	active
O=C(Nc1cnn2ccc(N3CCC[C@@H]3c3cc(F)ccc3F)nc12)N1CC[C@H](O)C1	inactive
CCCCOc1nc2cc(Cl)ccc2cc1/C=C/c1cc(/C=C/c2cc3ccc(Cl)cc3nc2OCCCC)n(-c2ccccc2)n1	inactive
COc1ccc2c(OCc3nnc4ccc(-c5ccccc5)nn34)ccnc2c1	inactive
COc1cc(N2CCC(N(C)C)CC2)ccc1Nc1ncc(Cl)c(Nc2ccccc2P(C)(C)=O)n1	active
O=C(Cn1ccnc1)Nc1ccc(-c2nc3ccccc3s2)cc1	inactive
CSc1nc2ncnc(SC)c2[nH]1	inactive
Nc1c(C(=O)c2ccccc2)sc2nc(-c3cccs3)cc(-c3cccs3)c12	inactive
Brc1ccc([I+]c2ccc(Br)cc2)cc1	active
CN1CCC(CNc2ccc3ncc(-c4cccc(OC(F)(F)F)c4)n3n2)CC1	active
CN(C)C1CCN(C(=O)c2ccc(NC(=O)Nc3ccc(-c4nc(N5CCOCC5)nc(N5CCOCC5)n4)cc3)cc2)CC1	active
Cc1cn(-c2cc(NC(=O)c3ccc(C)c(Nc4nccc(-c5cccnc5)n4)c3)cc(C(F)(F)F)c2)cn1	inactive
COc1cccc2cc(-c3nc(C4CCC(C(=O)O)CC4)n4ncnc(N)c34)[nH]c12 (centres undefined)	active
Cc1c(CN2CCN(C(=O)[C@H](C)O)CC2)sc2c(N3CCOCC3)nc(-c3cnc(N)nc3)nc12	active
Cc1cc(-c2cc(O)ccc2Cl)cc2nnc(Nc3ccc(OCCN4CCCC4)cc3)nc12	active
O=C(NOCCO)c1cc(CN2OCCCC2=O)c(F)c(F)c1Nc1ccc(I)cc1F	inactive
C/C=C/C=N/NC(=S)Nc1ccccc1	inactive
COc1cc(C(=O)NNC(=O)c2ccc(NC(=O)CCl)cc2)cc(OC)c1OC	inactive
CC[C@@H]1C(=O)N(C)c2cnc(Nc3ccc(C(=O)NC4CCC(N5CCN(CC6CC6)CC5)CC4)cc3OC)nc2N1C(C)C (some centres undefined)	active
COc1cc(OC)c(C(=O)/C=C/c2cc3c(cc2OCc2ccccc2)OC(C)(C)CC3)cc1CC=C(C)C	inactive
Nc1ncnc2c1ccn2-c1cccc(NC(=O)c2ccc(N3CCOCC3)c(C(F)(F)F)c2)c1	inactive
CC(C)c1ccc(/C=N/Nc2nc3ccccc3s2)cc1	inactive
O=CC(OC(=O)c1ccccc1)C(OC(=O)c1ccccc1)C(COC(c1ccccc1)(c1ccccc1)c1ccccc1)OC(=O)c1ccccc1 (centres undefined)	inactive
COc1cnc2c(c1)C(=O)c1c-2n(CCCn2ccnc2)c(=O)c2cc(Cl)ccc12	active
Cc1ccccc1Nc1nc2nonc2nc1Nc1cccc(C)c1C	inactive
CC(=O)c1cnc2ccc(-c3cc(Cl)c(O)c(Cl)c3)nc2c1NC1CCC(CN(C)C)CC1 (centres undefined)	active
O=C(Cc1ccc(/C=C/C(=O)c2ncc[nH]2)cc1)Nc1ccc(S(F)(F)(F)(F)F)cc1	inactive
N#Cc1cc2[nH]c3ccc(OC(F)(F)F)cc3c2oc1=O	inactive

* * *

Listing of entries alongside the reported growth.
Test system: U251 CNS
Assay: NCI-60 one-dose screen, 48 h (100 = growth as untreated, 0 = no growth, -100 = all killed)
Conditions: 10 µM unless noted
About 83,000 compounds went through this panel and 20% of them were active in at least one assay; those are over-represented in the sample as a whole.

compound	measurement_unit	growth
CCNCCNc1cc(-c2ccc(Cl)c(Cl)c2)c(C#N)c2nc3ccccc3n12	%	-95.5
C=CC(=O)N1CCC[C@H](n2c(=O)n(-c3ccc(Oc4ccccc4)cc3)c3c(N)ncnc32)C1	%	89.2
COc1ccc(C(=O)c2cc(OC)c(OC)c(OC)c2)cc1/C=C/C(=O)c1ccc(F)cc1	%	34.1
Nc1ncnc2c1c(-c1cccc(OCc3ccccc3)c1)cn2C1CC(CN2CCC2)C1 (stereo not drawn)	%	-17.9
CN1C/C=C\CCOc2cccc(c2)-c2ccnc(n2)Nc2cccc(c2)C1	%	-52.9
Cn1ncc(Cl)c1-c1cc(C(=O)N[C@H](CN)Cc2ccc(F)c(F)c2)oc1Cl	%	-86.5
COC(=O)CCCNc1c(-c2c(O)c(O)cc3c(O)c(-c4c(C)cc5c(-c6nc7ccccn7c6NCCCC(=O)OC)c(O)c(O)cc5c4O)c(C)cc23)nc2ccccn12	%	14
O=C(Cn1ccnc1)Nc1ccc(-c2nc3ccccc3s2)cc1	%	71.9
C=CC[n+]1c(/C=C2\Sc3ccccc3N2C)sc(-c2ccccc2)c1-c1ccccc1	%	15.1
Cc1cc2c(F)c(Oc3ncnn4cc(OC[C@@H](C)OC(=O)[C@H](C)N)c(C)c34)ccc2[nH]1	%	44.8
CO[C@H]1C[C@@H]2CC[C@@H](C)[C@@](O)(O2)C(=O)C(=O)N2CCCC[C@H]2C(=O)O[C@H]([C@H](C)C[C@@H]2CC[C@@H](OP(C)(C)=O)[C@H](OC)C2)CC(=O)[C@H](C)/C=C(\C)[C@@H](O)[C@@H](OC)C(=O)[C@H](C)C[C@H](C)\C=C/C=C/C=C/1C	%	40.4
COc1ccc(-c2cnc(-c3ccc(Cl)cc3)[nH]2)cc1OC	%	102
Cc1cc(N(CCNc2ccnc3cc(Cl)ccc23)Cc2ccc3c(c2)OCO3)nc(N2CCN(C)CC2)n1	%	-22.1
CC(C)(C)c1ccc(Cn2cc(CSc3nc4ccccc4s3)nn2)cc1	%	93.3
COc1cc(OC)c(/C=C/S(=O)(=O)Cc2ccc(OC)c(NCC(=O)O)c2)c(OC)c1	%	11.4
Cn1ncc(Cl)c1-c1cc(C(=O)N[C@H](CN)Cc2cccc(F)c2)sc1Cl	%	-45.2
C#Cc1cccc(Nc2ncnc3cc(OCCOC)c(OCCOC)cc23)c1	%	68.8
COc1ccc2c(CCc3ccc(Cl)cc3)c3[n+](cc2c1OC)CCc1cc2c(cc1-3)OCO2	%	22.4

* * *

Tested on: RXF 393 renal
Assay: NCI-60 one-dose screen, 48 h (100 = growth as untreated, 0 = no growth, -100 = all killed)
Conditions: 10 µM unless noted
Compounds without any hit were thinned out: in the full panel of roughly 83,000, 20% have a hit. The source made the active and inactive calls. The calls were made as follows: active = growth percent below 10; inactive = the rest.

chemical_string	growth
Cc1ccc(NC(=O)c2ccc(CN3CCN(C)CC3)cc2)cc1Nc1nc(-c2cccnc2)cs1	32.9% (inactive)
NC[C@@](O)(c1ccc(Cl)cc1)c1ccc(-c2cn[nH]c2)cc1	-6.86% (active)
Cc1ccc(NC(=O)Nc2ccc(Nc3ncnc4sc5c(c34)CCOC5)cc2)cc1Cl	95.5% (inactive)
CNC(=O)c1cc(Oc2cccc3nc(Nc4ccc(Cl)c(F)c4)ccc23)ccn1	8.19% (active)
N#Cc1ccc(-n2nnc3ccccc32)cc1C#N	100% (inactive)

* * *

Tested on: SR leukemia
Test: NCI-60 one-dose screen, 48 h (100 = growth as untreated, 0 = no growth, -100 = all killed)
Settings: 10 µM unless noted
The panel holds about 83,000 compounds, 20% with a hit somewhere; the sample as a whole holds those more often.
Output t for growth not less than 80%; output f otherwise.

chemical_string	assigned_label
FC(F)c1nc2ccccc2n1-c1nc(N2CCOCC2)nc(N2CCOCC2)n1	f
C[C@H](NC(=O)c1c(N)nn2cccnc12)c1cc2cccc(C#Cc3cnn(C)c3)c2c(=O)n1-c1ccccc1	f
COc1ccc(-c2nc(N)ncc2Oc2ccccc2OC)c(O)c1	f
CCCCN1C(=O)c2cccc3c(-c4ccc5c(c4)ncn5C4CCCCC4)ccc(c23)C1=O	t
C=CC(=O)Nc1cccc(Nc2nc(Nc3ccc(N4CCN(C(C)=O)CC4)cc3OC)ncc2C(F)(F)F)c1	f
CCCCCCCCCNCCCCCCCCC	f
Fc1ccc(NCc2cn(-c3ccccc3)nc2-c2ccc(OCc3ccccc3)cc2)cc1Cl	t
CN(N)c1nc2sc3c(c2c(=O)[nH]1)CCCC3	t
CN(c1ncccc1CNc1nc(Nc2ccc3c(c2)CC(=O)N3)ncc1C(F)(F)F)S(C)(=O)=O	f
O=c1[nH]ccc2c(S(=O)(=O)N3CCCNCC3)cccc12	t
